- experimentalSystem: SARS-CoV-2 3CLpro (Severe acute respiratory syndrome coronavirus 2, UniProt P0DTD1)
- protocolDetails: biochemical
- Assay type: biochemical
- details: 4 h, sheet LOPAC_screen_w_protease; LOPAC1280 primary screen with protease, 5 µM compound; replicate 1; read-out: Replicate_1
recordedEndpoint: inhibition at 5 µM (%)
Use % as the unit, but write only the number.

Example cases with answers are listed next.
- molecule: "CCOC(=O)C1=C(C)NC(C)=C(C(=O)OC)C1c1cccc([N+](=O)[O-])c1 (stereo not drawn) [Nitrendipine]"
  u: "%"
  inhibition at 5 µM: 3.89
- molecule: "O=c1nc2[nH]c3ccccc3nc-2c(=O)[nH]1 [Alloxazine]"
  u: "%"
  inhibition at 5 µM: 4.91

Next molecule, please.
Exam item: Dear colleague, I am looking for the recorded inhibition at 5 µM of the following molecule: CCCN(CCC)C(=O)C(CCC(=O)O)NC(=O)c1ccccc1 (stereo not drawn) [Proglumide]
Marked response: 4.11

====

Listed here: items and their measured Replicate_2 (LOPAC screen with protease).
- experimentalSystem: UniProt:P0DTD1
- protocolDetails: biochemical
- Assay type: biochemical
- details: sheet LOPAC_screen_w_protease; primary screen at 5 µM; replicate 2
# output: bare number, no unit

- compound: "NS(=O)(=O)c1cccc2c1c([N+](=O)[O-])cc1nc([O-])c([O-])nc12.[Na+].[Na+] [NBQX disodium]"
  recordedEndpoint: "Replicate_2 (LOPAC screen with protease)"
  testResult: 11.4514

Exam item: For the record CN(C)C(=O)N=NC(=O)N(C)C [N,N,N',N'-Tetramethylazodicarboxamide] , what value of Replicate_2 (LOPAC screen with protease) is listed for UniProt:P0DTD1?
Marked response: 20.8292

Exam item: Same question for CC(C)(C)c1ccc(S(=O)(=O)/C=C/C#N)cc1 [Bay 11-7085, reference compound] please.
Marked response: 88.5464

Exam item: Can you handle Br.Cc1cccc(C2CN(C)CCc3c2cc(O)c(O)c3Cl)c1 (stereo not shown) [SKF 83959 hydrobromide] next?
Marked response: 8.344

Exam item: Could you do the same for CC(N)C(O)c1ccc(O)c(O)c1 (single isomer, unassigned; (-)) [(-)-alpha-Methylnorepinephrine] , please?
Marked response: 8.372

Exam item: // same read-out, input: O=c1[nH]c2cc(C(F)(F)F)ccc2n1-c1cc(C(F)(F)F)ccc1O
Marked response: 8.536

Exam item: Next compound up: CC1CNCCN1S(=O)(=O)c1cccc2cnccc12.Cl.Cl (stereo not shown)
Marked response: 11.7856

====

Entries and their Replicate_1 (LOPAC_screen_w_protease)
- experimentalSystem: SARS-CoV-2 3CLpro (Severe acute respiratory syndrome coronavirus 2, UniProt P0DTD1)
- protocolDetails: biochemical
- Assay type: biochemical
- details: LOPAC1280 primary screen with protease, 5 µM compound, replicate 1
Answer as a number with no unit attached.

- compound: "CN(Cc1cnc2nc(N)nc(N)c2n1)c1ccc(C(=O)N[C@@H](CCC(=O)O)C(=O)O)cc1 [(-)Amethopterin]"
  Replicate_1 (LOPAC_screen_w_protease): 2.356

Exam item: Quick one: Replicate_1 (LOPAC_screen_w_protease) for N#C/C(=C\c1ccc(O)c(O)c1)C(=O)c1ccc(O)c(O)c1 [Tyrphostin AG 538] ?
Marked response: 1.926

Exam item: Next compound: Br.COc1ccc2c(c1)[C@]13CCCC[C@@H]1[C@H](C2)N(C)CC3.O
Marked response: 1.427

Exam item: Request: CC[N+](C)(CC)CC(=O)Nc1c(C)cccc1C.[Cl-] [Lidocaine N-methyl hydrochloride]
Marked response: 4.235

Exam item: // same read-out, input: CCn1c(=O)[nH]c2cc(Cl)c(Cl)cc21 [DCEBIO]
Marked response: 3.009
